The measurements presented in this section are drawn from patent US20250032514A1.

Procedure Summary: Study A35-002: single-dose PK of AMX0035, fasted vs high-fat meal, two-period cross-over
Format: in vivo, human
Condition Info: both sexes, human, plasma; single oral dose of AMX0035, healthy adults; read-out: terminal half-life (t1/2)
Measured Metric: half-life

Which half-life value belongs to O=C(O)CCCc1ccccc1 [PB, sodium phenylbutyrate] ?
< 1 h
